B1: Transcription intermediary factor 1-beta, residues 620 to 671; numbered along this chain, Q13263 (parent)
chain: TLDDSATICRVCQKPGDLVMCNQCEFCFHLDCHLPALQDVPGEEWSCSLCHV

- Variants of: B1
- method_summary: abundance fitness (aPCA) (normalised: wild type 0, dead -1); higher = more abundant; growth selection in yeast, the domain comes from the species named
- run_parameters: Homo sapiens
measured_parameter: abundance fitness
Lab note: jot the number down without any unit.

F26C    -0.029
G42Y    -0.421
L49A    0.205
W45D    -0.506
L2V    -0.13

Query: # get_value(readout='abundance fitness', item= S5G )
Reply: -0.308

Query: What about this variant? T7P
Reply: -0.204

Query: What about this variant? V52C
Reply: -0.289

Query: What about this variant? C21F
Reply: -0.962

Query: What about this variant? L34V
Reply: 0.062

Query: What about this variant? L18A
Reply: -0.559

Query: What about this variant? L37H
Reply: -0.215

Query: What about this variant? S48H
Reply: 0.052

Query: What about this variant? H29G
Reply: -0.899

Origin of the recorded values: the Human Domainome abundance scans (Beltran et al. 2025)
